Reported AC50 values follow for various molecules
# assayed_target: pyruvate kinase (Geobacillus stearothermophilus)
# test_description: pyruvate kinase inhibitors and activators, confirmation, biochemical, Geobacillus stearothermophilus (AID 1687)
# experimental_setup: purified enzyme, LDH-coupled NADH absorbance 340 nm

| smiles | AC50 |
| --- | --- |
| NNC(=O)c1ccc(CN2c3cccc4cccc(c34)S2(=O)=O)cc1 | 4.9 µM |
| CCN(CC)CCn1c2ccccc2n2cc(-c3ccc4c(c3)OCO4)nc12 | 2.2 µM |
| CN(C)CCn1c2ccccc2n2cc(-c3ccc4c(c3)OCO4)nc12 | 1.7 µM |
| Cn1c2ccccc2n2cc(-c3ccc4c(c3)OCO4)nc12 | 1 µM |
| CN(C)CCCN(C(=O)c1ccc(Cl)s1)c1nc2cc3c(cc2s1)OCO3 | 8.9 µM |

# input Data request, read-out AC50, for C=CCn1c2ccccc2n2cc(-c3ccc4c(c3)OCO4)nc12
# output 10.5 µM

# input Then this molecule: COc1cccc(CN2c3cccc4cccc(c34)S2(=O)=O)c1
# output 5.5 µM

# input Moving on to the next molecule: CCn1c2ccccc2n2cc(-c3ccc4c(c3)OCO4)nc12
# output 2 µM

# input Next record, please: O=C(CN1c2cccc3cccc(c23)S1(=O)=O)NCc1ccccc1OC(F)F
# output 7.6 µM
